Where do the numbers come from? From patent US6545002B1.

Measured target: recombinant human A1 receptors (hA1) (Homo sapiens, UniProt P30542)
Sequence (P30542 whole entry): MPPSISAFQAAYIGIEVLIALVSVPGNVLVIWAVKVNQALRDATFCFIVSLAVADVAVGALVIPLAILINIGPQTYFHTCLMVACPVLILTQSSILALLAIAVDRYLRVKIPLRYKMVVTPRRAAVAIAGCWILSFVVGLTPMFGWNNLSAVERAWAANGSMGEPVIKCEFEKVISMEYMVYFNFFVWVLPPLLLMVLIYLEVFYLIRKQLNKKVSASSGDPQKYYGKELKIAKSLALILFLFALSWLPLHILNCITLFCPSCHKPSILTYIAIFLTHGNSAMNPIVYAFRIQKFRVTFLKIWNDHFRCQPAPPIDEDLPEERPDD
Test protocol: Radioligand binding ([3H]CPX) at recombinant human A1 receptors in HEK-293 cells
Experimental parameters: read-out: hA1 Ki or IC50; Table 2
Under this convention, t denotes Ki strictly below 50 nM and f denotes Ki at or above 50 nM.

• CCCn1c(=O)c2[nH]c(-c3ccc(OCC(=O)Nc4ccc(F)cc4)cc3)nc2n(CCC)c1=O [Compound 30] = t
• CCCn1c(=O)c2[nH]c(-c3ccc(OCC(=O)NCc4ccccc4)cc3)nc2n(CCC)c1=O [Compound 13] = f
• CCCn1c(=O)c2[nH]c(-c3ccc(OCC(=O)Nc4ccccc4)cc3)nc2n(CCC)c1=O [Compound 12] = t
• CCCn1c(=O)c2[nH]c(-c3ccc(OCC(=O)Nc4ccc([N+](=O)[O-])cc4)cc3)nc2n(CCC)c1=O [Compound 28] = f
• CCCn1c(=O)c2[nH]c(-c3ccc(OCC(=O)Nc4ccccc4C(C)=O)cc3)nc2n(CCC)c1=O [Compound 18] = f
